target: Ctf3 complex (Ctf3, Mcm16, Mcm22), wild type, recombinant (yeast, UniProt Q12748;Q12262;P47167); experiment: fluorescence polarisation
Sequence (Q12748 whole entry, chain 1 of 3): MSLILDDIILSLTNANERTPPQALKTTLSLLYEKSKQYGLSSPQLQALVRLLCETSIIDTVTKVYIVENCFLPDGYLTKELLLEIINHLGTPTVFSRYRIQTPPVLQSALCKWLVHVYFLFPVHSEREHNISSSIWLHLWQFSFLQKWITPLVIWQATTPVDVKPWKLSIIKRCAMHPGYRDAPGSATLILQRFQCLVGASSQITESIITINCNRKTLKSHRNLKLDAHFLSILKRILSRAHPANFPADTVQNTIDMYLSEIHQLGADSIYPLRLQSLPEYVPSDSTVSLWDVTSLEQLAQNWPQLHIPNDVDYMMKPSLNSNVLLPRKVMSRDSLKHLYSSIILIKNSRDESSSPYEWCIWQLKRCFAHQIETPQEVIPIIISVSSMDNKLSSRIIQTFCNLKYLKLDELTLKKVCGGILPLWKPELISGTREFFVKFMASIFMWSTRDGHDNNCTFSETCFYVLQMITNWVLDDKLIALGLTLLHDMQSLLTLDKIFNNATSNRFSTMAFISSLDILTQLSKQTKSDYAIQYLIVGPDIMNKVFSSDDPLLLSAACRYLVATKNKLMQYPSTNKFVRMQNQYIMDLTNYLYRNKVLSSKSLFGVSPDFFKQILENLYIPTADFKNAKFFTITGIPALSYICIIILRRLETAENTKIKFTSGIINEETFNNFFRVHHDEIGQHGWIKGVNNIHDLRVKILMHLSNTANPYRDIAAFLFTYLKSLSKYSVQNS
Sequence (Q12262 whole entry, chain 2 of 3): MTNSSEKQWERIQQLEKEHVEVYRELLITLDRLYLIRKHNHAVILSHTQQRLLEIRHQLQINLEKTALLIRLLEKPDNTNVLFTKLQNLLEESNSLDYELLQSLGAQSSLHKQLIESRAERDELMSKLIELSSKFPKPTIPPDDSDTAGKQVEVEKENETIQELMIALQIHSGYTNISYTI
Sequence (P47167 whole entry, chain 3 of 3): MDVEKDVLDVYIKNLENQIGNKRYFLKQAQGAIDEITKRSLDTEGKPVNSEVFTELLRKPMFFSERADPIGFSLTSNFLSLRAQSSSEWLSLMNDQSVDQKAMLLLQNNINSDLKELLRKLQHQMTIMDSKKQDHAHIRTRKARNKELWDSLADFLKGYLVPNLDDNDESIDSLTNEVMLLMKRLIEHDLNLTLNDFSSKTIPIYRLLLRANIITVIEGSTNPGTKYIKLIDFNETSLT
pKd: −log10 of the molar value.
quantity_measured: pKd

Enquiry: Report pKd for DDSDVNLIGSS (fITC-AHA on the N-terminus) [FITC-Ulp2-KIM peptide (fITC-AHA-DDSDVNLIGSS; Ulp2-927-937)] please.
Return: ~6.05
